experiment: Brain to plasma ratio of belvarafenib, summary over mice and rats; assay type: in vivo; settings: mouse, rat, brain/plasma; mice and rats, oral administration
Property measured: Kp

Ask: // returns reported Kp for input Cc1ccc2c(Nc3cccc(Cl)c3F)nccc2c1NC(=O)c1csc2c(N)ncnc12 [Belvarafenib]
Reply: ~1

----------
assay: Pharmacokinetic profile and brain distribution in mice after oral administration; assay type: in vivo, mice (ICR); settings: ICR (CD-1), mouse, oral 30 mg/kg, brain
Property measured: Cmax

Ask: // returns reported Cmax for input Cc1ccc2c(Nc3cccc(Cl)c3F)nccc2c1NC(=O)c1csc2c(N)ncnc12
Reply: 6100 ng/g

----------
assay: Pharmacokinetic profile and brain distribution in rats after oral administration; format: in vivo, rats (SD); details: SD, rat, oral 30 mg/kg, brain
Property measured: Tmax (h)
Enter your answer as a number in h; do not include the unit.

Ask: // returns reported Tmax for input Cc1ccc2c(Nc3cccc(Cl)c3F)nccc2c1NC(=O)c1csc2c(N)ncnc12
Reply: 4
